- Experimental Details: Toxicity in mouse J774A1 cells
- Type: cell-based, J774.A1
Listed here: items and their measured CC50.
Readout: CC50 (µM)

Smiles Code: COC(=O)[C@@H]1Cc2c([nH]c3ccccc23)[C@H](c2ccc(C)cc2)N1C(=O)C(=O)c1c[nH]c2ccccc12
Recorded Result: 27.4
--
Smiles Code: COC(=O)[C@H]1Cc2c([nH]c3ccccc23)[C@H](c2ccc(C(C)C)cc2)N1C(=O)C(=O)c1c[nH]c2ccc(Br)cc12
Recorded Result: 9.04
--
Smiles Code: COC(=O)[C@@H]1Cc2c([nH]c3ccccc23)[C@@H](c2ccccc2Br)N1C(=O)C(=O)c1c[nH]c2ccc(Br)cc12
Recorded Result: 7.25
--
Smiles Code: COC(=O)[C@H]1Cc2c([nH]c3ccccc23)[C@@H](c2ccc(C(C)C)cc2)N1C(=O)C(=O)c1c[nH]c2ccccc12
Recorded Result: 32.6
--
Smiles Code: CCc1ccc([C@@H]2c3[nH]c4ccccc4c3C[C@H](C(=O)OC)N2C(=O)C(=O)c2c[nH]c3ccccc23)cc1
Recorded Result: 163
--
Smiles Code: CCc1ccc([C@H]2c3[nH]c4ccccc4c3C[C@H](C(=O)OC)N2C(=O)C(=O)c2c[nH]c3ccc(Br)cc23)cc1
Recorded Result: 9.48
--
Smiles Code: COC(=O)[C@H]1Cc2c([nH]c3ccccc23)[C@@H](c2ccc(C(C)C)cc2)N1C(=O)C(=O)c1c[nH]c2ccc(Br)cc12
Recorded Result: 7.77
--
Smiles Code: COC(=O)[C@@H]1Cc2c([nH]c3ccccc23)[C@@H](c2ccc(Cl)cc2)N1C(=O)C(=O)c1c[nH]c2ccc(Br)cc12
Recorded Result: 7.64
--
Smiles Code: COC(=O)[C@@H]1Cc2c([nH]c3ccccc23)[C@@H](c2ccc(Cl)cc2)N1C(=O)C(=O)c1c[nH]c2ccccc12
Recorded Result: 11.3
--
Smiles Code: CCc1ccc([C@@H]2c3[nH]c4ccccc4c3C[C@H](C(=O)OC)N2C(=O)C(=O)c2c[nH]c3ccc(Br)cc23)cc1
Recorded Result: 11.6

Recorded values, source ChEMBL document CHEMBL1268822.
